assay_info: Pharmacokinetic study, 4ET-03-009 at 20 mg/kg oral
Format: in vivo, CD-1 male mice
condition_label: male, CD-1, mouse, plasma, individual animals
Protocol: Compound 4ET-03-009 was dissolved in a 10% dimethylacetamide (DMA)/3000 polyethylene glycol (PEG) 300/400% propylene glycol (PG)/200% water solvent. […] Plasma was collected at indicated timepoints and plasma concentration of compound 4ET-03-009 was measured using liquid chromatography-mass spectrometry/mass spectrometry (LC-MS/MS). Results are presented in FIG. 1 and Tables 3, 4, and 5. […]
value_kind: Tmax (min)
The reply should contain only the number, in min.

Quick one: give measured Tmax for Cc1cc(Nc2cc(NC(=O)C3CC3)ncn2)c(=O)n2c1C(=O)NC21CCOCC1
30

---

assay_info: Pharmacokinetic study, 4ET-03-009 at 20 mg/kg oral
Assay type: in vivo, CD-1 male mice
condition_label: male, CD-1, mouse, plasma, po, 20 mg/kg, Mean (n = 3)
value_kind: AUC(0-inf) (µg·h/mL)
The reply should contain only the number, in µg·h/mL.

Quick one: give measured AUC(0-inf) for Cc1cc(Nc2cc(NC(=O)C3CC3)ncn2)c(=O)n2c1C(=O)NC21CCOCC1
2.26

---

experimental_target: MNK2 (Homo sapiens, UniProt Q9HBH9)
Sequence (Q9HBH9 whole entry): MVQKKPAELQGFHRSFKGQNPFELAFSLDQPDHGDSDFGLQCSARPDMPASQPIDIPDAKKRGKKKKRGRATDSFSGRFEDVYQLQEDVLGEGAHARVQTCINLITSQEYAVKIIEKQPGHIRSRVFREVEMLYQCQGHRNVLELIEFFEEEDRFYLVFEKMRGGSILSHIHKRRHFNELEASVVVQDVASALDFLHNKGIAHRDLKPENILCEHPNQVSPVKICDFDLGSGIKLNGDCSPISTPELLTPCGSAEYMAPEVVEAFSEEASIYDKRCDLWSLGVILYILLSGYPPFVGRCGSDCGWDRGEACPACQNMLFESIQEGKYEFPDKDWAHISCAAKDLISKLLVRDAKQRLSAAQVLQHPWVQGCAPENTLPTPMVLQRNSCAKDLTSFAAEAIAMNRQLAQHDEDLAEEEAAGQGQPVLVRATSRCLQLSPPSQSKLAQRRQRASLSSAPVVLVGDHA
assay_info: MNK2 substrate phosphorylation assay
condition_label: recombinant human kinase
value_kind: pIC50
Convention used: pIC50 is expressed as -log10 of the molar concentration.

Quick one: give measured pIC50 for Cc1cc(Nc2cc(NC(=O)C3CC3)ncn2)c(=O)n2c1C(=O)NC21Cc2ccc(Cl)cc2C1 (centres unmarked) [Compound 4ET-03-054]
8.24

Quick one: give measured pIC50 for Cc1cc(Nc2cc(NC(=O)C3CC3)ncn2)c(=O)n2c1C(=O)NC21C[C@H]2CNC[C@H]2C1 (single isomer, unassigned) [Compound 4ET-03-050B]
8.16

Quick one: give measured pIC50 for Cc1cc(Nc2cc(NCCN3CCOCC3)ncn2)c(=O)n2c1C(=O)NC2(C)C [Compound 4ET-03-003]
7.65

Quick one: give measured pIC50 for CCC1=CC2(CCC1)NC(=O)c1c(C)cc(Nc3cc(NC(=O)C4CC4)ncn3)c(=O)n12 (centres unmarked) [Compound 4ET-03-039]
8.79

Quick one: give measured pIC50 for Cc1cc(Nc2cc(NCCO)ncn2)c(=O)n2c1C(=O)NC21CCCC1 [Compound 4ET-03-007]
8.31

Quick one: give measured pIC50 for Cc1cc(Nc2cc(NC(=O)C3CC3)ncn2)c(=O)n2c1C(=O)NC21CCCCC1 [Compound 4ET-02-003]
8.39

Quick one: give measured pIC50 for Cc1cc(Nc2cc(N)ncn2)c(=O)n2c1C(=O)NC21CCC(NS(C)(=O)=O)CC1 (centres unmarked) [Compound 4ET-01-004]
8.09

Quick one: give measured pIC50 for Cc1cc(Nc2cc(NC(=O)C(C)C)ncn2)c(=O)n2c1C(=O)NC2(C)C [Compound 4ET-03-001]
7.92

Quick one: give measured pIC50 for Cc1cc(Nc2cc(N)ncn2)c(=O)n2c1C(=O)NC21Cc2ccccc2[C@@H]1F (single isomer, unassigned) [Compound 4ET-01-010B]
7.02

Quick one: give measured pIC50 for Cc1cc(Nc2cc(N)ncn2)c(=O)n2c1C(=O)NC21C[C@H]2COC[C@H]2C1 (single isomer, unassigned) [Compound 4ET-01-014A]
8.40

Quick one: give measured pIC50 for Cc1cc(Nc2cc(NC(=O)C3CC3)ncn2)c(=O)n2c1C(=O)NC21C[C@H]2CNC[C@H]2C1 (single isomer, unassigned) [Compound 4ET-03-050A]
8.88

Quick one: give measured pIC50 for Cc1cc(Nc2cc(N)ncn2)c(=O)n2c1C(=O)NC21CCOCC1 [Compound 4ET-01-002]
8.59

Quick one: give measured pIC50 for Cc1cc(Nc2cc(NCCC(=O)O)ncn2)c(=O)n2c1C(=O)NC21CCCCC1 [Compound 4ET-02-006]
7.84

Quick one: give measured pIC50 for Cc1cc(Nc2cc(NC(=O)C3CC3)ncn2)c(=O)n2c1C(=O)NC21Cc2ccccc2[C@@H]1O (stereo in doubt) [Compound 4ET-03-063]
8.52

---

assay_info: Pharmacokinetic study, 4ET-03-009 at 10 mg/kg oral
Type: in vivo, CD-1 male mice
condition_label: male, CD-1, mouse, plasma, oral, 10 mg/kg, 0.25 hours, read-out: Plasma Conc. (per mouse n = 3)
value_kind: concentration at 0.25 h (ng/mL)
The reply should contain only the number, in ng/mL.

Quick one: give measured concentration at 0.25 h for Cc1cc(Nc2cc(NC(=O)C3CC3)ncn2)c(=O)n2c1C(=O)NC21CCOCC1 [Compound 4ET-03-009]
106

---

assay_info: Brain vs plasma concentration, 4ET-03-009 at 10 mg/kg
Format: in vivo, mice
condition_label: CD-1, mouse, brain, oral, 10 mg/kg, 10 mg/kg oral, 2 hours after dosing, Brain; read-out: Mean Tissue
value_kind: concentration at 2 hours (ng/g)
The reply should contain only the number, in ng/g.

Quick one: give measured concentration at 2 hours for Cc1cc(Nc2cc(NC(=O)C3CC3)ncn2)c(=O)n2c1C(=O)NC21CCOCC1
27.3

---

assay_info: Liver microsome stability, rat
Format: in vitro ADME
condition_label: Rat liver microsomes (#); read-out: CLint rodent
Would you kindly list microsomal CLint for each of these compounds?
The reply should contain only the number, in µL/min/mg.

Quick one: give measured microsomal CLint for Cc1cc(Nc2cc(NC(=O)C3CC3)ncn2)c(=O)n2c1C(=O)NC21CCCCC1 [Compound 4ET-02-003]
3.75

Quick one: give measured microsomal CLint for Cc1cc(Nc2cc(N)ncn2)c(=O)n2c1C(=O)NC21CCOCC1 [Compound 4ET-01-002]
2.7

Quick one: give measured microsomal CLint for Cc1cc(Nc2cc(NC(=O)C(C)C)ncn2)c(=O)n2c1C(=O)NC21CCCC1 [Compound 4ET-03-005]
4.84

Quick one: give measured microsomal CLint for Cc1cc(Nc2cc(N)ncn2)c(=O)n2c1C(=O)NC21CCCCC1 [eFT508, reference compound]
2.86

Quick one: give measured microsomal CLint for Cc1cc(Nc2cc(N)ncn2)c(=O)n2c1C(=O)NC2(C)C [Compound 4ET-01-003]
2.33

Quick one: give measured microsomal CLint for Cc1cc(Nc2cc(NC(=O)C3CC3)ncn2)c(=O)n2c1C(=O)NC21CCC(O)CC1 (stereo not shown) [Compound 4ET-03-015]
3.18

Quick one: give measured microsomal CLint for Cc1cc(Nc2cc(NCCO)ncn2)c(=O)n2c1C(=O)NC21CCCCC1 [Compound 4ET-02-001]
2.54

Quick one: give measured microsomal CLint for Cc1cc(Nc2cc(N)ncn2)c(=O)n2c1C(=O)NC21CCC(NS(C)(=O)=O)CC1 (stereo not shown) [Compound 4ET-01-004]
9.57

Quick one: give measured microsomal CLint for Cc1cc(Nc2cc(NCCN3CCOCC3)ncn2)c(=O)n2c1C(=O)NC21CCCCC1 [Compound 4ET-02-005]
13.6

Quick one: give measured microsomal CLint for Cc1cc(Nc2cc(NC(=O)C3CC3)ncn2)c(=O)n2c1C(=O)NC21CCOCC1 [Compound 4ET-03-009]
2.54

---

Test system: MDCK-MDR1
assay_info: MDCK-MDR1 permeability (blood brain barrier permeability)
Type: in vitro ADME, Canine
condition_label: 5 μM
value_kind: Efflux ratio (ratio B-A/A-B)
No unit in the answer, please; the number alone is enough.

Quick one: give measured Efflux ratio (ratio B-A/A-B) for Cc1cc(Nc2cc(NC(=O)C3CC3)ncn2)c(=O)n2c1C(=O)NC21C[C@H]2CNC[C@H]2C1 (single isomer, unassigned) [Compound 4ET-03-050B]
1.3

Quick one: give measured Efflux ratio (ratio B-A/A-B) for Cc1cc(Nc2cc(N)ncn2)c(=O)n2c1C(=O)NC21C[C@H]2COC[C@H]2C1 (single isomer, unassigned) [Compound 4ET-01-014B]
2.4

Quick one: give measured Efflux ratio (ratio B-A/A-B) for Cc1cc(Nc2cc(NC(=O)C3CC3)ncn2)c(=O)n2c1C(=O)NC21C[C@H]2CNC[C@H]2C1 (single isomer, unassigned) [Compound 4ET-03-050A]
12.4

Quick one: give measured Efflux ratio (ratio B-A/A-B) for Cc1cc(Nc2cc(NC(=O)C3CC3)ncn2)c(=O)n2c1C(=O)NC21Cc2ccccc2[C@@H]1F (single isomer, unassigned) [Compound 4ET-03-052B]
2.8

Quick one: give measured Efflux ratio (ratio B-A/A-B) for Cc1cc(Nc2cc(NC(=O)C3CC3)ncn2)c(=O)n2c1C(=O)NC21Cc2ccccc2[C@@H]1F (single isomer, unassigned) [Compound 4ET-03-052A]
6.6

---

assay_info: Brain to plasma ratio, 4ET-01-021 at 3.0 mg/kg PO
Type: in vivo, male CD-1 mouse
condition_label: male, CD-1, mouse, plasma, oral, 3 mg/kg, 2 hr, Plasma, individual, read-out: Plasma Concentration
value_kind: concentration at 2 h

Quick one: give measured concentration at 2 h for CCC1=CC2(CCC1)NC(=O)c1c(C)cc(Nc3cc(N)ncn3)c(=O)n12 (stereo not shown)
404 ng/mL
